Ki by entry:
Target: MMP-12h (Homo sapiens (Human))
Sequence (P39900 106-470): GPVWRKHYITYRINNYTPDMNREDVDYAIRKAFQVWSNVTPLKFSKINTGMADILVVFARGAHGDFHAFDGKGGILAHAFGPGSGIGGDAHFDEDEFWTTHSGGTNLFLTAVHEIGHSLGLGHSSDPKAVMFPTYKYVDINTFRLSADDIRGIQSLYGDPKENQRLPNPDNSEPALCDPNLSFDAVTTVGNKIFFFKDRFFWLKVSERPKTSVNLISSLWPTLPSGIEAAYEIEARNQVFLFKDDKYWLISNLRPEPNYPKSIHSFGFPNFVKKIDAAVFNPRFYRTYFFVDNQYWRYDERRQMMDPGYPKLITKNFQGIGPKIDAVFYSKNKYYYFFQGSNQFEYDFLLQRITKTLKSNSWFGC
Assay: Inhibition constant (Ki) on MMP-12h
Assay type: biochemical
Conditions: read-out: Ki MMP-12h; human MMP-12
quantity: Ki (nM)

INSERT INTO measurements (sample_smiles, quantity, numeric_value) VALUES
  ('Cc1csc(-c2ccc(CCC(=O)N[C@@H](CCC(=O)O)C(=O)N[C@@H](CCC(=O)O)C(N)=O)cc2)c1', 'Ki', 22),
  ('NC(=O)[C@H](CCC(=O)O)NC(=O)[C@H](CC(=O)O)NC(=O)CCc1ccc(-c2ccc(-c3ccccc3)cc2)cc1', 'Ki', 10.5),
  ('NC(=O)CC[C@H](NC(=O)[C@H](CCC(=O)O)NC(=O)CCc1cc(-c2ccc(-c3ccccc3)cc2)no1)C(N)=O', 'Ki', 5.4),
  ('NC(=O)[C@H](Cc1ccc(O)cc1)NC(=O)[C@H](CCC(=O)O)NC(=O)CCc1ccc(-c2ccc(-c3ccccc3)cc2)cc1', 'Ki', 6.6),
  ('C[C@H](NC(=O)[C@H](CCC(=O)O)NC(=O)CCc1ccc(-c2ccccc2)cc1)C(N)=O', 'Ki', 58),
  ('NC(=O)CC[C@H](NC(=O)CCc1cc(-c2ccc(-c3ccccc3)cc2)no1)C(=O)N[C@@H](CCC(=O)O)C(N)=O', 'Ki', 412),
  ('NC(=O)[C@H](CCC(=O)O)NC(=O)[C@@H](CCC(=O)O)NC(=O)CCc1cc(-c2ccc(-c3cccc(Cl)c3)cc2)no1', 'Ki', 401);
